The measured values listed here are drawn from the supplement of paper PMC10567573.

B1: TOR1AIP2 (parent)
chain: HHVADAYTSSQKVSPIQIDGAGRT

Variants of: B1
Assay: protein stability index of a GFP-peptide fusion (GPS, HEK-293T) (PSI 1-6); higher = more stable;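 also: lentivirally expressed fusions sorted by FACS into six bins by GFP to DsRed ratio, PSI derived from sequencing read proportions per bin multiplied by bin number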
Conditions: c terminus: a fixed tail appended
READOUT_NAME: protein stability index

Examples with answers:
1) S10C :: 2.96
2) T24M :: 2.98

Now examine the next entry.
Exercise: Which protein stability index is listed for V3D ?
Key: 2.96
